target: T1, mTfR-1 V230A on Expi293 cells (mouse, UniProt Q62351 1-763); test: FACS, transfected Expi293 cells
T1 construct: whole, on cells
T1 sequence (Q62351 whole entry V230A): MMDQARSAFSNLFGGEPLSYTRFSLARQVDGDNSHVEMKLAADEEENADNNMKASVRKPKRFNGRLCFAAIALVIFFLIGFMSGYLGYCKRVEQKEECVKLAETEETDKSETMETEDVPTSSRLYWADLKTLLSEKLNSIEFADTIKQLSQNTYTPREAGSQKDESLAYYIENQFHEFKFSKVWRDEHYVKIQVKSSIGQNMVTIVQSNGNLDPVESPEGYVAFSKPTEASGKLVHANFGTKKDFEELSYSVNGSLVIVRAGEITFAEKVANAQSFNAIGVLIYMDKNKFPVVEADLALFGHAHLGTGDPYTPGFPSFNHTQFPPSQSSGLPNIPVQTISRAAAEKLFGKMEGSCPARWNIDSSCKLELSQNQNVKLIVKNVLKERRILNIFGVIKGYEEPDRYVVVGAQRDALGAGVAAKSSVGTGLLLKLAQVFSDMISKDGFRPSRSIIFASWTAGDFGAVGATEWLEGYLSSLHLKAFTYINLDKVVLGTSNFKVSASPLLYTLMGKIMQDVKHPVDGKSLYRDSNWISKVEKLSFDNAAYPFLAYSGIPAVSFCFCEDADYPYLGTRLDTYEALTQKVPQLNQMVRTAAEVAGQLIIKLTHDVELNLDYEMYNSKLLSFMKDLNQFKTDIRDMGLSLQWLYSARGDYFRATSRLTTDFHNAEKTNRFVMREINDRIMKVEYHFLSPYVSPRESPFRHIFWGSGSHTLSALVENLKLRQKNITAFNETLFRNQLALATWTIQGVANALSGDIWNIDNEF
Measured Quantity: % double-positive cells vs WT (%)
Record the value in %, omitting the unit from your answer.

Here are 3 binders together with their reported answers.
| Binder | Readout Value |
| --- | --- |
| 8D3 antibody (anti-mouse TfR-1 control; 8D3-hFc formatted antibody) (antibody, V domains shown) VH: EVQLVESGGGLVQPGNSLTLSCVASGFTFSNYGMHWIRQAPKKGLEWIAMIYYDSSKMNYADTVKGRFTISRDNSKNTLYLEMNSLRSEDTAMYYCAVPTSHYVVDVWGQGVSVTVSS VL: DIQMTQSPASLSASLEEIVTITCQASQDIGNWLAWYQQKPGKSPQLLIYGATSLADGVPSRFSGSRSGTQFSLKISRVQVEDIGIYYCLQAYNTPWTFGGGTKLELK | 81 |
| Clone C variant 13 VNAR-hFc (Fc fusion, not shown: a dimerising Fc or GST, also called Clone C v13; Clone C var; 13) ARVDQTPQTITKETGESLTINCVLRDSNCALSSTYWYRKKSGSTNEENISKGGRYVETVNSGSKSFSLRINDLTVEDSGTYRCNVVQYPQQDNYFWCDVYGDGTAVTVN | 47 |
| Clone C VNAR-hFc fusion (Fc fusion, not shown: a dimerising Fc or GST, bivalent VNAR-Fc; also called Clone C-hFc) ARVDQTPQTITKETGESLTINCVLRDSNCALSSTYWYRKKSGSTNEENISKGGRYVETVNSGSKSFSLRINDLTVEDSGTYRCNVVQYPSYNNYFWCDVYGDGTAVTVN | 58 |

Which % double-positive cells vs WT value belongs to Clone C variant 18 VNAR-hFc (Fc fusion, not shown: a dimerising Fc or GST, also called Clone C v18; Clone C var; 18) ARVDQTPQTITKETGESLTINCVLRDSNCALSSTYWYRKKSGSTNEENISKGGRYVETVNSGSKSFSLRINDLTVEDSGTYRCNVVQYPQYPNYFWCDVYGDGTAVTVN ?
59

The origin of these recorded values is patent US20210403591A1.
